Each entry below lists one item and its recorded TGI value.
system: OVCAR-3 ovarian; assay: NCI tumour cell line growth inhibition, 48 h
value kind: TGI (µM)

1) Cc1cc(N(CCCl)CCCl)ccc1C=Nc1cccnc1 :: 31.7
2) Nc1cc2c(cc1[N+](=O)[O-])[nH]c1c(-c3ccccc3)nccc12 :: 48.5
3) CN(C)CC1CCC/C(=C\c2ccc(N(C)C)cc2)C1=O (stereo unspecified) :: 9.36
4) O=C(NCc1cn(Cc2cccc(Oc3ccccc3)c2)nn1)c1cccnc1Nc1ccccc1 :: 5.46

----------
system: SK-MEL-2 melanoma; experiment: NCI tumour cell line growth inhibition, 48 h
value kind: GI50

1. OCC(O)CC[CH2][Sn]([c]1ccccc1)([c]1ccccc1)[c]1ccccc1 (centres undefined) :: 15.3 µM
2. Cn1ncc2c(Nc3ccc(Br)cc3)nc(Nc3ccc(Br)cc3)nc21 :: 2.89 µM
3. [Cu+2].[Cu+2].[O-]c1ccccc1C=Nc1ccccc1[O-].[O-]c1ccccc1C=Nc1ccccc1[O-] :: 11.5 µM
4. COc1ccc(-c2nc(-c3nc4ccc(F)cc4[nH]3)cc3c2[nH]c2ccccc23)cc1 :: 2.11 µM

----------
Each entry below lists one item and its recorded GI50 value.
tested on: TK-10 renal; test: NCI tumour cell line growth inhibition, 48 h
value kind: GI50

1) CC1(C)CCC(S(=O)(=O)c2ccc3c(c2)/C(=N\O)c2cc(S(=O)(=O)N4CCC(O)(c5cccc(C(F)(F)F)c5)CC4)ccc2-3)CC1 :: 0.0441 µM
2) CC(=O)[CH-]C(=O)c1ccccc1.CC(=O)[CH-]C(=O)c1ccccc1.[Nd+3].[OH-].[OH3+] :: > 100 µM
3) COc1cc2c(-c3nc4cc(Cl)c(F)cc4s3)cc(=O)oc2c(C)c1OC :: 1.96 µM
4) Cn1ncc2c(Nc3ccc(Br)cc3)nc(Nc3ccc(Br)cc3)nc21 :: 4.75 µM
5) CN(C(=O)C1CCCCC1)c1ccccc1I(=O)=O :: 27.4 µM
6) O=C1C(=O)c2ccc(Br)cc2-c2cc(Br)ccc21 :: 22.7 µM
7) c1ccc2c(c1)O[As](O[As]1Oc3ccccc3O1)O2 :: 4.75 µM
8) COc1ccc2c(c1)O/C(=C\c1cccc(OCC(=O)Nc3nc4ccccc4s3)c1)C2=O :: > 54.3 µM
9) O=S(=O)(Nc1ccc(-c2nc(-c3cccc(OCCN4CCOCC4)c3)c(-c3ccnc(Br)c3)[nH]2)cc1)c1ccccc1 :: 4.16 µM

----------
Each entry below lists one item and its recorded TGI value.
tested on: HOP-18 NSCLC; assay: NCI tumour cell line growth inhibition, 48 h
value kind: TGI

1. OCC(O)COc1ccc(Br)cc1 (stereo not given) :: > 100 µM
2. Oc1c(Cl)c2nccnc2c2ccccc12 :: > 100 µM
3. N#C/C(=C\c1ccc(CP(=O)(O)O)cc1)C(N)=O :: > 100 µM
4. O=C(Cn1ccnc1[N+](=O)[O-])N(CCO)CCO :: > 1250 µM
5. C=CCN1C(=O)CS/C1=N\NC(=O)c1c(C)nc2sccn12 :: > 100 µM

----------
test system: NCI-H23 lung; assay: NCI tumour cell line growth inhibition, 48 h
Each entry below lists one item and its recorded TGI value.
value kind: TGI

1. CCOn1cc(C[C@@]2(O)C(=O)OC3[C@@H](O)CO[C@@]32O)c2ccccc21 (some centres undefined) :: > 100 µM
2. COC1/C=C/O[C@@]2(C)Oc3c(C)c(O)c4c(O)c(cc(O)c4c3C2=O)NC(=O)/C(C)=C\C=C\[C@H](C)C(O)[C@@H](C)[C@@H](O)[C@@H](C)[C@H](OC(C)=O)[C@@H]1C (some centres undefined) :: 33.8 µM
3. C/C(=N\Nc1nc2cc(C)ccc2s1)c1ccccn1 :: 11.8 µM
4. COC(=O)/C(=C/c1ccc(OC)cc1)C(C(=O)O)=C(C)C :: > 100 µM
5. O=S(=O)(c1cccc(C(F)(F)F)c1)N1c2ccccc2-n2cccc2C1c1cccnc1 (centres undefined) :: > 100 µM
6. COc1ccc2c(O)c3[n+](cc2c1OC)CCc1cc2c(cc1-3)OCO2 :: > 100 µM
7. CC(C)(C)C1CC[C@H]2c3c([nH]c4ccc(Br)cc34)[C@H]3C(=O)N(c4ccccc4)C(=O)[C@H]3[C@H]2C1 (some centres undefined) :: > 100 µM
8. Cc1nc2sc(C(=O)Nc3cccc4ccccc34)c(N)c2cc1C(C)O (centres undefined) :: > 50 µM
9. C=CC1CC12C(=O)C1OC2(C)C2C(=O)c3ccccc3C(=O)C12 (centres undefined) :: > 59.8 µM

Values were extracted from PubChem BioAssay (NCI).
